system: 134 cancer cell lines; assay: Cell viability assay (ATPlite, 72 hours), IC50 on cancer cell line panel; details: Homo sapiens, 769-P, read-out: IC50 in cell proliferation assay
Provide the recorded pIC50 for the entries that follow.
// pIC50 is dimensionless: -log10 of concentration (M)

Input line: Provide only the value of recorded pIC50 for C=CC(=O)N1CCC[C@@H](n2nc(-c3ccc(Oc4ccccc4)cc3)c3c(N)ncnc32)C1
Output line: 6.20

Input line: Provide only the value of recorded pIC50 for CCn1c(=O)c(-c2cc(NC(=O)Nc3ccccc3)c(F)cc2Br)cc2cnc(NC)cc21
Output line: 5.59

* * *

Provide the recorded inhibition at 1 µM for the entries that follow.
molecular target: panel of 255 wild-type kinases (Homo sapiens, UniProt P24941); experiment: Kinase panel profiling at 1 µmol/L (MSA or IMAP), percentage inhibition; format: biochemical; conditions: CDK2/CycA2 kinase assay; 1 µmol/L single concentration; read-out: %-inhibition CDK2/CycA2
Number first, unit second: that is the form wanted.

Input line: Provide only the value of recorded inhibition at 1 µM for Cn1cnc2c(F)c(Nc3ccc(Br)cc3F)c(C(=O)NOCCO)cc21
Output line: 2.3%

Input line: Provide only the value of recorded inhibition at 1 µM for COc1ccc(CN2C3CC2CN(c2ccc(-c4cc(OCC(C)(C)O)cn5ncc(C#N)c45)cn2)C3)cn1
Output line: 0.89%

Input line: Provide only the value of recorded inhibition at 1 µM for COC(=O)N[C@@H](C)CNc1nccc(-c2cn(C(C)C)nc2-c2cc(Cl)cc(NS(C)(=O)=O)c2F)n1
Output line: 5.57%

Input line: Provide only the value of recorded inhibition at 1 µM for Cc1nc(NC(=O)N2CCC[C@H]2C(N)=O)sc1-c1ccnc(C(C)(C)C(F)(F)F)c1
Output line: -2.39%

Input line: Provide only the value of recorded inhibition at 1 µM for CCc1nc(C(N)=O)c(Nc2ccc(N3CCC(N4CCN(C)CC4)CC3)c(OC)c2)nc1NC1CCOCC1
Output line: 27%

Input line: Provide only the value of recorded inhibition at 1 µM for CCN1CCN(c2ccc(Nc3cc(N(C)C(=O)Nc4c(Cl)c(OC)cc(OC)c4Cl)ncn3)cc2)CC1
Output line: 11%

Input line: Provide only the value of recorded inhibition at 1 µM for FC(F)(F)c1ccc(CNc2ccc(Cc3c[nH]c4ncc(Cl)cc34)cn2)cn1
Output line: 12%

Input line: Provide only the value of recorded inhibition at 1 µM for COc1cc2ncnc(Nc3ccc(F)c(Cl)c3)c2cc1NC(=O)/C=C/CN1CCCCC1
Output line: -13%
